The entries below are paired with their reported IC50.
# Experimental details: Inhibition of Candida albicans glucosamine-6-phosphate synthase by Elson-Morgan method
Only the number, expressed in mM, is required.

COP(=O)(OC)OC[C@@H](O)[C@@H](O)[C@H](O)[C@@H](N)CO : 4.75

Read the next record carefully.
# IC50 of N[C@@H](CO)[C@@H](O)[C@H](O)[C@H](O)COP(=O)(O)O = 0.23

These measurements were taken from ChEMBL document CHEMBL4715849.
